Measured values drawn from paper PMC6627609 for this set.

Attribute: inhibition at 50 µM
Biological target: LsrK (Salmonella typhimurium, UniProt Q8ZKQ6)
Sequence (Q8ZKQ6 whole entry): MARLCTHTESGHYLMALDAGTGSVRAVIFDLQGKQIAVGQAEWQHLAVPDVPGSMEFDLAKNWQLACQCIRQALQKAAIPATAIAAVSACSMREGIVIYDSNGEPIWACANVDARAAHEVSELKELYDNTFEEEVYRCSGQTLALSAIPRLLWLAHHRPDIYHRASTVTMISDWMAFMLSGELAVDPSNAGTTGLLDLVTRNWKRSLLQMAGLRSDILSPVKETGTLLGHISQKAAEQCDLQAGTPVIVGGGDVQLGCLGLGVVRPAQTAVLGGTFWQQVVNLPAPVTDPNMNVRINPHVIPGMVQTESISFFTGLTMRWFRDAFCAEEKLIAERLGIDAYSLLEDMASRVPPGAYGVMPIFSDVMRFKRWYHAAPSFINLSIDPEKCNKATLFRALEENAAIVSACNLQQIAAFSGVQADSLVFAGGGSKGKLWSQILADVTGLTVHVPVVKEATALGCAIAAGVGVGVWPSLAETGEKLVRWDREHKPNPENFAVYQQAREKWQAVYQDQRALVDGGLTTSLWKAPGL
Experiment: biochemical
Format: biochemical, S. typhimurium
Counter-ions that a name gives are not always drawn.
Unit % implied. Number only.

compound	measure.name	units	val
c1ccc2c(c1)sc1ccccc12 [DIBENZOTHIOPHENE]	inhibition at 50 µM	%	0
COc1ccc(CCN(C)CCCC(C#N)(c2ccc(OC)c(OC)c2)C(C)C)cc1OC (centres unmarked) [VERAPAMIL HYDROCHLORIDE]	inhibition at 50 µM	%	1
COc1ccc2cc([C@H](C)CO)ccc2c1 [NAPROXOL]	inhibition at 50 µM	%	0
O=C1c2ccccc2C(=O)c2ccccc21 [ANTHRAQUINONE]	inhibition at 50 µM	%	0
CO[C@@]1(NC(=O)Cc2cccs2)C(=O)N2C(C(=O)O)=C(COC(N)=O)CS[C@@H]21 [CEFOXITIN SODIUM]	inhibition at 50 µM	%	3

Lookup: Param readout= inhibition at 50 µM; system= LsrK (Salmonella typhimurium, UniProt Q8ZKQ6); entry= CN1[C@@H](CC(=O)c2ccccc2)CCC[C@H]1C[C@H](O)c1ccccc1 [LOBELINE HYDROCHLORIDE] ; returns value.
Found: 1

Lookup: Param readout= inhibition at 50 µM; system= LsrK (Salmonella typhimurium, UniProt Q8ZKQ6); entry= COc1ccc2c(c1)OCc1c-2oc2cc(OC)ccc12 [DEHYDROVARIABILIN] ; returns value.
Found: 1

Lookup: Param readout= inhibition at 50 µM; system= LsrK (Salmonella typhimurium, UniProt Q8ZKQ6); entry= CC(C)C(=O)Nc1ccc([N+](=O)[O-])c(C(F)(F)F)c1 [FLUTAMIDE] ; returns value.
Found: 2

====

Target: UniProtKB Q8ZKQ6
Experiment: biochemical
Format: biochemical, S. typhimurium
Conditions: 50 µM
measure.name: Inhibition (%)
Keep it simple and answer with nothing but the number.

molecule	Inhibition (%)
O=c1cccc2n1C[C@@H]1C[C@H]2CN2CCCC[C@H]12.[O-][Cl+3]([O-])([O-])O [THERMOPSINE PERCHLORATE]	0
CO/N=C(\C(=O)N[C@@H]1C(=O)N2C(C(=O)OCOC(=O)C(C)(C)C)=C(/C=C\c3scnc3C)CS[C@H]12)c1csc(N)n1	2
O=C(O)CCCCCCCC(O)C(O)CCCCCCO (stereo not drawn)	0
c1ccc2c(Cc3c[nH]c4ccccc34)c[nH]c2c1	0
COc1cc(O)c(C(=O)/C=C/c2ccc(O)c(OC)c2)c(OC)c1	1

Proceeding to the next molecule to report its Inhibition (%).
Lookup: Reported Inhibition (%) for Cc1c(N(C)CS(=O)(=O)[O-])c(=O)n(-c2ccccc2)n1C.[Na+] : what is it?
Found: 2

====

Target: LsrK (Salmonella typhimurium, UniProt Q8ZKQ6)
Test: biochemical
Format: biochemical, S. typhimurium
Counter-ions that a name gives are not always drawn.
Attribute: inhibition at 50 µM
Unit % implied. Number only.

Some entries whose results are on file:
molecule	target.under.test	units	val
O=c1cc(-c2ccc(O)cc2)oc2cc(O[C@@H]3O[C@H](CO)[C@@H](O)[C@H](O)[C@H]3O[C@@H]3OC[C@](O)(CO)[C@H]3O)cc(O)c12	LsrK (Salmonella typhimurium, UniProt Q8ZKQ6)	%	1
N[C@@H](CCC(=O)N[C@@H](CS)C(=O)NCC(=O)O)C(=O)O	LsrK (Salmonella typhimurium, UniProt Q8ZKQ6)	%	1

Lookup: Reported inhibition at 50 µM for CC[C@@]1(O)C(=O)OCc2c1cc1n(c2=O)Cc2cc3c(CN(C)C)c(O)ccc3nc2-1 [TOPOTECAN HYDROCHLORIDE] : what is it?
Found: 0

Lookup: Reported inhibition at 50 µM for CCCCOC(=O)c1ccccc1C(=O)OCCCC [DIBUTYL PHTHALATE] : what is it?
Found: 0

Lookup: Reported inhibition at 50 µM for CN(C(=O)C(Cl)Cl)c1ccc(OC(=O)c2ccco2)cc1 [DILOXANIDE FUROATE] : what is it?
Found: 4

Lookup: Reported inhibition at 50 µM for CC12CCC(CC1)C(C)(C)O2 : what is it?
Found: 1

Lookup: Reported inhibition at 50 µM for O=c1oc2cc(O)ccc2s1 : what is it?
Found: 88

Lookup: Reported inhibition at 50 µM for Cc1ncc(CSSCc2cnc(C)c(O)c2CO)c(CO)c1O : what is it?
Found: 1

Lookup: Reported inhibition at 50 µM for COC(=O)[C@H](c1ccccc1Cl)N1CCc2sccc2C1 [CLOPIDOGREL SULFATE] : what is it?
Found: 11

====

Molecular target: LsrK (Salmonella typhimurium, UniProt Q8ZKQ6)
Assay: biochemical
Format: biochemical, S. typhimurium
Counter-ions that a name gives are not always drawn.
measure.name: inhibition at 50 µM (%)
Unit % implied. Number only.

Some entries whose results are on file:
compound	inhibition at 50 µM (%)
CC(=O)O[C@H]1C[C@@H](O)C(C)(C)[C@@H]2C[C@@H](OC(C)=O)[C@]3(C)[C@H](CC[C@@]4(C)[C@@H](c5ccoc5)OC(=O)[C@H]5O[C@@]534)[C@@]12C [3-DEACETYLKHIVORIN]	99
CC[C@@H](C(=O)[C@@H](C)[C@@H](O)[C@H](C)[C@@H]1O[C@@H]([C@@H](CC)C(=O)O)CC[C@@H]1C)[C@H]1O[C@]2(C=C[C@@H](O)[C@]3(CC[C@@](C)([C@H]4CC[C@](O)(CC)[C@H](C)O4)O3)O2)[C@H](C)C[C@@H]1C [SALINOMYCIN. SODIUM]	2
CN(C)CC/C=C1/c2ccccc2Sc2ccc(Cl)cc21 [CHLORPROTHIXENE HYDROCHLORIDE]	2

Lookup: Reported inhibition at 50 µM for Cc1nnc(SCC2=C(C(=O)O)N3C(=O)[C@@H](NC(=O)Cn4cnnn4)[C@H]3SC2)s1 [CEFAZOLIN SODIUM] : what is it?
Found: 1

Lookup: Reported inhibition at 50 µM for CC(=O)OCC(=O)[C@@]1(O)CC[C@H]2[C@@H]3CCC4=CC(=O)C=C[C@]4(C)[C@H]3[C@@H](O)C[C@@]21C [PREDNISOLONE ACETATE] : what is it?
Found: 0

Lookup: Reported inhibition at 50 µM for O=C(OOC(=O)c1ccccc1)c1ccccc1 [BENZOYL PEROXIDE] : what is it?
Found: 11

Lookup: Reported inhibition at 50 µM for CCOC(=O)NNc1nncc2ccccc12 [TODRALAZINE HYDROCHLORIDE] : what is it?
Found: 2

Lookup: Reported inhibition at 50 µM for CC(=O)OCC1=C(C(=O)O)N2C(=O)[C@@H](NC(=O)Cc3cccs3)[C@H]2SC1 [CEPHALOTHIN SODIUM] : what is it?
Found: 1

Lookup: Reported inhibition at 50 µM for C#CCCCCCCCCCCCC(O)CC(O)COC(C)=O (centres unmarked) [AVOCADYNE ACETATE] : what is it?
Found: 1

Lookup: Reported inhibition at 50 µM for CCCSc1ccc2nc(NC(=O)OC)[nH]c2c1 [ALBENDAZOLE] : what is it?
Found: 4

Lookup: Reported inhibition at 50 µM for COc1ccccc1N1CCN(CCCNc2cc(=O)n(C)c(=O)n2C)CC1 [URAPIDIL HYDROCHLORIDE] : what is it?
Found: 1

====

Target: LsrK (Salmonella typhimurium, UniProt Q8ZKQ6)
Test: biochemical
Type: biochemical, S. typhimurium
Attribute: inhibition at 50 µM
Unit % implied. Number only.

molecule	target.under.test	inhibition at 50 µM / %
Cc1cc(O)c(C=O)c(O)c1C(=O)O [H[…]]	LsrK (Salmonella typhimurium, UniProt Q8ZKQ6)	1
O=C(O)c1ccc2c(c1)OCO2 [PIPERONYLIC ACID]	LsrK (Salmonella typhimurium, UniProt Q8ZKQ6)	1

Proceeding to the next molecule to report its inhibition at 50 µM.
Lookup: Param readout= inhibition at 50 µM; system= LsrK (Salmonella typhimurium, UniProt Q8ZKQ6); entry= CC1=C(O)C(=O)C=C2C1=CC=C1[C@@]2(C)CC[C@@]2(C)[C@@H]3C[C@](C)(C(=O)O)CC[C@]3(C)CC[C@]12C [CELASTROL] ; returns value.
Found: 109

====

Biological target: LsrK (Salmonella typhimurium, UniProt Q8ZKQ6)
Experiment: biochemical
Format: biochemical, S. typhimurium
Attribute: inhibition at 50 µM
Unit % implied. Number only.

Some entries whose results are on file:
molecule	val
C[C@H](CCC(=O)O)[C@H]1CC[C@H]2[C@@H]3[C@H](O)C[C@@H]4C[C@H](O)CC[C@]4(C)[C@H]3CC[C@]12C	2
COc1cccc(O)c1O	118
OCC(S)CS (centres unmarked)	125

Proceeding to the next molecule to report its inhibition at 50 µM.
Lookup: Reported inhibition at 50 µM for Oc1c(Cl)cc(Cl)c(Cl)c1Cc1c(O)c(Cl)cc(Cl)c1Cl : what is it?
Found: 112
